Data origin, for the record: ChEMBL document CHEMBL4765230

- testedSystem: Phosphatidylinositol 4,5-bisphosphate 3-kinase catalytic subunit delta isoform (Homo sapiens)
- Sequence (O00329 whole entry, canonical isoform): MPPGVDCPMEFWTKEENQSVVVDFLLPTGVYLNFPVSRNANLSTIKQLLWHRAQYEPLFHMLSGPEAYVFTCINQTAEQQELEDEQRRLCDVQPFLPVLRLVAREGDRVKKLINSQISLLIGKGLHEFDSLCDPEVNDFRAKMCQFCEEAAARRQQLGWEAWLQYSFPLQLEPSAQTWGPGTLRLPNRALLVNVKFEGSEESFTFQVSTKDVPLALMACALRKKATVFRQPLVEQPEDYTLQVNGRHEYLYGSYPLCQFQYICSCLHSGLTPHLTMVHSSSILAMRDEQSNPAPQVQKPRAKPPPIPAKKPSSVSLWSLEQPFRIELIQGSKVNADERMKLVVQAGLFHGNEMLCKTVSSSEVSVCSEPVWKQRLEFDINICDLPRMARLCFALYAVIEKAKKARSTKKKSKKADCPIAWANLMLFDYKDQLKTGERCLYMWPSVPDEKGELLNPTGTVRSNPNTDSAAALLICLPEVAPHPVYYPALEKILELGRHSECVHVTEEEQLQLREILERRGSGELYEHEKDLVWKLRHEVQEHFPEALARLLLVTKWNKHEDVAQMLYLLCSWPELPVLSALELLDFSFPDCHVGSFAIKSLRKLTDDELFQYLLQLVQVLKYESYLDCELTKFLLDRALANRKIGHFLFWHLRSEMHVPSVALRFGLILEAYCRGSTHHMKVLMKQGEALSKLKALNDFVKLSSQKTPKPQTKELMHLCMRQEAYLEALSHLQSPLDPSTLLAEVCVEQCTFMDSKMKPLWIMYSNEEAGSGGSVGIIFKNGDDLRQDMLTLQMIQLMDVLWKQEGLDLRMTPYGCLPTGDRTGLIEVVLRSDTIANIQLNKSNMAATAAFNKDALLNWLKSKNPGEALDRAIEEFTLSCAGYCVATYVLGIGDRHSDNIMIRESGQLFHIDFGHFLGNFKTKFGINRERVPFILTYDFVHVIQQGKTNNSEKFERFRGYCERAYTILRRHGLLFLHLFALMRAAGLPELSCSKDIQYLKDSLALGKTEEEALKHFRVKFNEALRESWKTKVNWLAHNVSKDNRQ
- assayInfo: Inhibition of PI3Kdelta in human whole blood assessed as reduction in anti-FCepsilonR1 mAb-stimulated basophil activation preincubated for 60 mins followed by anti-FCepsilonR1 mAb stimulation and measured after 25 mins by flow cytometry analysis
- Assay type: tissue-based
quantityMeasured: EC50 (nM)

Use the examples below as a reference point.
# molecule, recordedResult
records = [
    ("CC[C@H](Nc1nc(N)nc(N)c1C#N)c1nc2c(F)ccc(Cl)c2c(=O)n1-c1cccnc1", 2),
    ("C[C@H](Nc1nc(N)nc(N)c1C#N)c1nc2c(Cl)cccc2c(=O)n1-c1cccnc1", 5),
    ("C[C@H](Nc1nc(N)nc(N)c1C#N)c1nc2cccc(Cl)c2c(=O)n1-c1cncc(Cl)c1", 4),
]

a: N#Cc1c(N)nc(N)nc1N[C@H](c1nc2c(F)ccc(Cl)c2c(=O)n1-c1cccnc1)C1CC1 [GS-9901]
b: C[C@H](Nc1nc(N)nc(N)c1C#N)c1nc2c(F)ccc(F)c2c(=O)n1-c1cccnc1
c: C[C@H](Nc1nc(N)nc(N)c1C#N)c1nc2cccc(Cl)c2c(=O)n1-c1cncc(C#N)c1
Task: Please rank these molecules by EC50 in descending order. Put the labels in the requested order and write them down.
Result: b, c, a
(b: 11 nM, c: 4 nM, a: 1 nM)
